Assay: qHTS RealTime-Glo MT Cell Viability Assay in HepG2 cells - 8 hour (AID 1224873); further: nearly all actives have a fitted effect of over 55% in size
Details: RealTime-Glo luminescence; series mostly up to 76.8 µM
Description: National Center for Advancing Translational Sciences [NCATS] NIH Chemical Genomics Center [NCGC] U.S. Environmental Protection Agency [EPA] National Institutes of Environmental Health Sciences [NIEHS] National Toxicology Program [NTP] U.S. Food and Drug Administration [FDA] Measure of cell viability is critical in the cell-base assay. Analysis of cell viability is necessary for the characterization of cell responses to cytotoxic drugs and environmental stress. […]
Records with an inconclusive call do not appear. Activity calls are given as the source filed them. The call rests on the fitted dose curve; in most records, active means well fitted cell-killing curve with a large enough effect in the repeat runs; inconclusive means weak or mixed curves; inactive means flat fitted curve, though single readings scatter.
Result category, one only: active, inactive

Answered cases to consult:
>>> categorylabel("CNC(C)Cc1ccc2c(c1)OCO2 (configuration not stated)")
"inactive"
>>> categorylabel("NC(=O)c1ccc(N)nc1")
"inactive"
>>> categorylabel("CN(CCCC(=O)c1cccnc1)N=O")
"inactive"
>>> categorylabel("CC(C)OS(C)(=O)=O")
"inactive"
>>> categorylabel("ClC1=C(Cl)[C@]2(Cl)[C@H]3[C@H]([C@H]4C=C[C@H]3C4)[C@@]1(Cl)C2(Cl)Cl")
"inactive"

## Input What call does the record list for CS(=O)(=O)c1ccc(C(=O)C2C(=O)CCCC2=O)c([N+](=O)[O-])c1 ?
## Output inactive

## Input Another compound to look at: N#C/C=C/c1ccccc1
## Output inactive

## Input Then this compound: O=[N+]([O-])O.O=[N+]([O-])O.[Cd]
## Output inactive

## Input Also need SCc1ccco1 , thanks.
## Output inactive

## Input Try this compound too: O=C(O)C1C2CCC(O2)C1C(=O)O (configuration not stated)
## Output inactive

## Input // repeat for Oc1c(Cl)c(Cl)cc(Cl)c1Cl and report
## Output inactive

## Input Similarly, BrCBr ?
## Output inactive

## Input Do the same for CC(Cl)CN(C)C (configuration not stated) please
## Output inactive

## Input Another compound to look at: Cc1ccc(CCl)cc1
## Output inactive

## Input Now this one: CC(=O)c1ccc(-c2ccccc2)cc1
## Output inactive

## Input Now try Cc1cc(C)c(C2=C(OC(=O)CC(C)(C)C)C3(CCCC3)OC2=O)c(C)c1 .
## Output inactive

## Input Moving on to CC1(C)CN=C(NN=C(/C=C/c2ccc(C(F)(F)F)cc2)/C=C/c2ccc(C(F)(F)F)cc2)NC1
## Output active

## Input // same read-out, input: CC1CCC(C(C)C)C(OC(=O)c2ccccc2N)C1 (configuration not stated)
## Output inactive

## Input Field entry: O=[N+]([O-])c1cc(C(F)(F)F)c(Cl)c([N+](=O)[O-])c1Cl
## Output active

## Input What would you report for C[C@]12CC[C@@H]3c4ccc(OC(=O)N(CCCl)CCCl)cc4CC[C@H]3[C@@H]1CC[C@@H]2O ?
## Output inactive
